Tested on: RPMI-8226 leukemia
Assay: NCI-60 one-dose screen, 48 h
Conditions: 10 µM unless noted
Method: Growth inhibition of the RPMI-8226 human tumor cell line is measured as a screen for anti-cancer activity. Cells are grown in 96 well plates and exposed to the test compound for 48 hours. Compounds are tested at a single concentration, which is 10^-5 M for most compounds. The reported endpoint is percent growth (GI% or GIPRCNT), where numbers from 0 - 100% represent growth inhibition, and numbers from -100% - 0 represent cell death. For example, a value of 40 represents 60% growth inhibition. […]
The panel holds about 83,000 compounds, 20% with a hit somewhere; the sample as a whole holds those more often. Calls of active or inactive are those of the source. Rule for the calls: active = growth percent below 10; inactive = the rest.
Output constraint: value belongs to active, inactive

INSERT INTO assay_data (compound, label_class) VALUES
  ('O=C(C(=O)N1CCCC1)c1cn(CCCCCn2cc(C(=O)C(=O)N3CCCC3)c3ccccc32)c2ccccc12', 'inactive'),
  ('Cn1cnnc1[S-].[Au+].c1ccc([PH+](c2ccccc2)c2ccccc2)cc1', 'active'),
  ('C#CC1(O)CCC2(C)C(CCC3C4CCC(=O)C4(C)CCC32)C1 (stereo not given)', 'inactive'),
  ('CC(=O)Nc1ccc(Cc2ccc(NC(C)=O)cc2)cc1', 'inactive'),
  ('C[C@]12CC[C@H]3[C@@H](C[C@@H]4N=C(c5ccc(O)cc5)S[C@@]45C[C@H](O)CC[C@]35C)[C@@H]1CC[C@@H]2O', 'active');

Dear all, I need the recorded test outcome for CCOC(=O)C1(c2ccccc2)CCN(CC(=O)c2ccc(NC(C)=O)cc2)CC1 , thank you.
inactive

---

test system: HL-60(TB) leukemia; test: NCI-60 one-dose screen, 48 h; details: 10 µM unless noted
This is part of a sample that, as a whole, favours compounds with a hit. Of some 83,000 tested, about 20% had one in any assay. Calls of active or inactive are those of the source. Rule for the calls: active = growth percent below 10; inactive = the rest.
Output constraint: value belongs to TRUE = active, FALSE = inactive

Use these answered entries as a reference point.
INSERT INTO measurements (molecule, label_class) VALUES
  ('Cc1ccccc1C1N=C2Oc3ccccc3C=C2C(=O)N1 (configuration not stated)', 'TRUE'),
  ('O=C(Nc1cccc(-n2cc(-c3ccncc3)c(-c3ccc(O)c(Cl)c3)n2)c1)c1cc(C(F)(F)F)cc(C(F)(F)F)c1', 'FALSE');

Dear all, I need the recorded test outcome for O=C1Nc2ccccc2/C1=C/c1cn(C[C@@H](O)Cn2c3ccccc3c(=O)c3ccccc32)c2ccccc12 , thank you.
FALSE

Dear all, I need the recorded test outcome for COc1ccc(/C=C/C(=O)N2CCC(O)CC2)cc1OC1CCCC1 , thank you.
FALSE

Dear all, I need the recorded test outcome for CC(=O)c1nc2ccccc2n1CCN1CCN(C)CC1 , thank you.
TRUE

---

Recorded growth, one value per entry.
System: RPMI-8226 leukemia
Assay: NCI-60 one-dose screen, 48 h (100 = growth as untreated, 0 = no growth, -100 = all killed)
Conditions: 10 µM unless noted
Procedure: Growth inhibition of the RPMI-8226 human tumor cell line is measured as a screen for anti-cancer activity. Cells are grown in 96 well plates and exposed to the test compound for 48 hours. Compounds are tested at a single concentration, which is 10^-5 M for most compounds. The reported endpoint is percent growth (GI% or GIPRCNT), where numbers from 0 - 100% represent growth inhibition, and numbers from -100% - 0 represent cell death. For example, a value of 40 represents 60% growth inhibition. […]
Compounds without any hit were thinned out: in the full panel of roughly 83,000, 20% have a hit. Calls of active or inactive are those of the source. The calls were made as follows: active = growth percent below 10; inactive = the rest.

INSERT INTO results (compound, target_under_test, value) VALUES
  ('COc1ccc(C(=O)c2ccc([As]=O)cc2)cc1 (stereo unspecified)', 'RPMI-8226 leukemia', '-24% (active)'),
  ('O=C1NC(=O)C(Cc2ccccc2)(Cc2ccccc2)C(=O)N1', 'RPMI-8226 leukemia', '96.4% (inactive)');

Give growth for Nc1ccc([N+](=O)[O-])c2c1Oc1ccccc1O2 tested on RPMI-8226 leukemia.
105% (inactive)

Give growth for C/C(=C\C(=O)O[C@H]1[C@@H]2[C@H](C)CC[C@H]2[C@]2(C)O[C@@]1(C1CCCCC1)C[C@H]2OC(=O)CO)c1ccccc1 tested on RPMI-8226 leukemia.
-28.7% (active)

Give growth for O=c1[nH]c2cc(Cl)ccc2n1C1CCN(CCCC(c2ccc(F)cc2)c2ccc(F)cc2)CC1 tested on RPMI-8226 leukemia.
-52.8% (active)

Give growth for O=C(/C=C/c1ccccc1)N[C@@H](CO)Cc1cnc[nH]1 tested on RPMI-8226 leukemia.
98% (inactive)

Give growth for CNc1ccc(C(=O)CC(O)CCC(C)C2OC(=O)CC(O)CC(=O)CC(O)CC(O)CC(O)CC(O)CC3(O)CC(O)C(C(=O)OC)C(CC(O[C@@H]4O[C@H](C)[C@@H](O)[C@H](N)[C@@H]4O)/C=C/C=C/C=C/C=C/C=C/C=C/C=C/C2C)O3)cc1 (stereo partly specified) tested on RPMI-8226 leukemia.
18.3% (inactive)

Give growth for O=[N+]([O-])c1ccc2cnn(CSP(=S)(c3ccccc3)c3ccccc3)c2c1 tested on RPMI-8226 leukemia.
52.3% (inactive)

Give growth for O=C(CC1(O)C(=O)Nc2ccc(F)cc21)c1ccc(C(=O)NCC2CCC3(CC2)OOC2(CCCCC2)OO3)cc1 (stereo unspecified) tested on RPMI-8226 leukemia.
12.7% (inactive)

Give growth for CC(C)CCC[C@@H](C)[C@H]1CC[C@H]2[C@@H]3CC=C4C[C@@H](OC(=O)Cc5ccc(N(CCCl)CCCl)cc5)CC[C@]4(C)[C@H]3CC[C@]12C tested on RPMI-8226 leukemia.
108% (inactive)

Give growth for CC1(C)N=C(N)N=C(N)N1c1ccc(CCCCc2ccc(Cl)cc2S(=O)(=O)F)c(Cl)c1 tested on RPMI-8226 leukemia.
17.8% (inactive)

Data origin: PubChem BioAssay (NCI)
